Attribution: the supplement of paper PMC11577813

Property: net action potential response; scope: individual molecules
Tested on: lanierone-responsive B-neuron OSN class (ItypOR36)
Assay: net action potential response of lanierone B-neuron (blank-subtracted) (spikes/s (Hz)); higher = stronger excitation
Conditions: co-localized A-neuron class: myrcene; 10 µg on filter paper; neuron: B neuron (small spike amplitude)
Please state the value as a number alone, without comment.

Answered cases to consult:
- MOLECULE: "CC12CCC(CC1=O)C2(C)C (racemic) [(±)-Camphor]"
  VALUE OBSERVED: -2
- MOLECULE: "CC/C=C/CCO"
  VALUE OBSERVED: -2
- MOLECULE: "CC1=CCC2C(C1)C2(C)C (single isomer, unassigned; (+)) [(+)-3-Carene]"
  VALUE OBSERVED: -2
- MOLECULE: "C=C1CCC2CC1C2(C)C (stereo not drawn) [(-)-β-Pinene]"
  VALUE OBSERVED: -8
- MOLECULE: "CCC/C=C/CO"
  VALUE OBSERVED: 2
- MOLECULE: "CC1=CCC(=C(C)C)CC1 [Terpinolene]"
  VALUE OBSERVED: -8
- MOLECULE: "OCCc1ccccc1 [2-Phenylethanol]"
  VALUE OBSERVED: 2
- MOLECULE: "CC[C@H]1O[C@]2(C)CCC[C@H]1O2 (racemic) [(±)-exo-Brevicomin]"
  VALUE OBSERVED: 2
- MOLECULE: "c1ccc2c(c1)CCO2 [2,3-Dihydrobenzofuran]"
  VALUE OBSERVED: -2
- MOLECULE: "C=CC(=C)CCC=C(C)C [Myrcene]"
  VALUE OBSERVED: -6

Quick one: give measured net action potential response for CC1=CCC(C(C)C)=CC1 [γ-Terpinene]
-6

Quick one: give measured net action potential response for C=Cc1ccccc1 [Styrene]
4

Quick one: give measured net action potential response for `CC/C=C\CCO`
-6

----------
System: lanierone-responsive B-neuron OSN class (ItypOR36)
Assay: net action potential response of lanierone B-neuron (blank-subtracted) (spikes/s (Hz)); higher = stronger excitation
Details: co-localized A-neuron class: ipsdienol; 10 µg on filter paper; neuron: B neuron (small spike amplitude)
Property: net action potential response; scope: individual compounds

- COMPOUND: "CC(=O)OCCC(C)C [3-Methylbutyl acetate]"
  SYSTEM TESTED: "lanierone-responsive B-neuron OSN class (ItypOR36)"
  net action potential response: 2
- COMPOUND: "CC(=O)c1ccccc1 [Acetophenone]"
  SYSTEM TESTED: "lanierone-responsive B-neuron OSN class (ItypOR36)"
  net action potential response: -4.67
- COMPOUND: "CCC/C=C\\CO"
  SYSTEM TESTED: "lanierone-responsive B-neuron OSN class (ItypOR36)"
  net action potential response: 0.667
- COMPOUND: "C[C@H]1C(=O)C[C@H]2C[C@@H]1C2(C)C [(-)-Pinocamphone]"
  SYSTEM TESTED: "lanierone-responsive B-neuron OSN class (ItypOR36)"
  net action potential response: 0
- COMPOUND: "C=CC(C)(C)O [2-Methyl-3-buten-2-ol]"
  SYSTEM TESTED: "lanierone-responsive B-neuron OSN class (ItypOR36)"
  net action potential response: 3.33
- COMPOUND: "CC1(C)C2CC=C(CO)C1C2 (racemic) [(±)-Myrtenol]"
  SYSTEM TESTED: "lanierone-responsive B-neuron OSN class (ItypOR36)"
  net action potential response: -2
- COMPOUND: "C=C1[C@@H]2CC[C@@H](C2)C1(C)C (racemic) [(±)-Camphene]"
  SYSTEM TESTED: "lanierone-responsive B-neuron OSN class (ItypOR36)"
  net action potential response: 3.33
- COMPOUND: "CC(=O)OC/C=C(\\C)CCC=C(C)C [Geranyl acetate]"
  SYSTEM TESTED: "lanierone-responsive B-neuron OSN class (ItypOR36)"
  net action potential response: -2
- COMPOUND: "CCCCCC=O [Hexanal]"
  SYSTEM TESTED: "lanierone-responsive B-neuron OSN class (ItypOR36)"
  net action potential response: -3.33
- COMPOUND: "c1ccc2c(c1)CCO2 [2,3-Dihydrobenzofuran]"
  SYSTEM TESTED: "lanierone-responsive B-neuron OSN class (ItypOR36)"
  net action potential response: -3.33

# assay system lanierone-responsive B-neuron OSN class (ItypOR36): give net action potential response of CC1=CCC(=C(C)C)CC1 [Terpinolene]
2

# assay system lanierone-responsive B-neuron OSN class (ItypOR36): give net action potential response of CC1=C[C@@H](O)[C@H]2C[C@@H]1C2(C)C [(-)-trans-Verbenol]
2

# assay system lanierone-responsive B-neuron OSN class (ItypOR36): give net action potential response of CC1=CC(C)(C)C=C(O)C1=O [Lanierone]
121

# assay system lanierone-responsive B-neuron OSN class (ItypOR36): give net action potential response of CCCCCCO [1-Hexanol]
2

# assay system lanierone-responsive B-neuron OSN class (ItypOR36): give net action potential response of CC1=CC(=O)[C@@H]2C[C@H]1C2(C)C [(-)-Verbenone]
2
